Details: 299.15 K; 101.33 kPa; Liquid; Pulse-echo method
outcome measure: speed of sound (m/s)
One number for each entry, in m/s.

CCCCC(=O)[O-].C[NH2+]CCO [2-hydroxy-N-methylethanaminium pentanoate]	1545.6
CCC(=O)[O-].C[NH2+]CCO [2-hydroxy-N-methylethanaminium propionate]	1687

Hi team, please reply with speed of sound for each item in this list.
1. C[NH2+]CCO.O=C[O-] [2-hydroxy-N-methylethanaminium formate]
2. CC(C)C(=O)[O-].C[NH2+]CCO [2-hydroxy-N-methylethanaminium isobutyrate]

stdout:
1813.4
1608.5

stdin: Return speed of sound (reported value) for this molecule: CCCC(=O)[O-].C[NH2+]CCO [N-methyl-2-hydroxyethylammonium butanoate]
stdout: 1611.4
